Origin of values: ChEMBL document CHEMBL1146315

Assay: Cmax in Sprague-Dawley rat at 30 mg/kg, po
Type: ADME, organism-based
Parameters: dose 30 mg/kg, route oral
Settings: in vivo
MEASUREMENT NAME: Cmax (ng/mL)

P: CCOC1OC(=O)C[C@@H]1NC(=O)[C@H](C)N1CC=CC[C@H](NC(=O)c2ccc3ccccc3c2)C1=O (some centres undefined)
Q: CCOC1OC(=O)C[C@@H]1NC(=O)CN1CC=CC[C@H](NC(=O)c2ccc3ccccc3c2)C1=O (some centres undefined)
QUERY: Compare P and Q and name the one whose reported Cmax is smaller. When you have decided, please share the label of that item.
RESULT: P
(P: 720 ng/mL, Q: 9360 ng/mL)

P: O=C(CN1CC=CC[C@H](NC(=O)c2ccc3ccccc3c2)C1=O)N[C@H]1CC(=O)OC1O (some centres undefined)
Q: CCOC1OC(=O)C[C@@H]1NC(=O)CN1CC(CNC(=O)c2ccc(OC)cc2)=CC[C@H](NC(=O)c2ccc3ccccc3c2)C1=O (some centres undefined)
QUERY: Compare P and Q and name the one whose reported Cmax is smaller. When you have decided, please share the label of that item.
RESULT: Q
(Q: 9 ng/mL, P: 264 ng/mL)

---

Experiment: Half life in Sprague-Dawley rat at 30 mg/kg, po
Type: ADME, organism-based
Design: dose 30 mg/kg, route oral
Details: in vivo
MEASUREMENT NAME: half-life (h)

>>> recorded_number("CCOC1OC(=O)C[C@@H]1NC(=O)[C@H](C)N1CC=CC[C@H](NC(=O)c2ccc3ccccc3c2)C1=O (some centres undefined)")
5.1

A: CCOC1OC(=O)C[C@@H]1NC(=O)CN1CC=CC[C@H](NC(=O)c2ccc3ccccc3c2)C1=O (some centres undefined)
B: CCOC1OC(=O)C[C@@H]1NC(=O)CN1CC(CNC(=O)c2ccc(OC)cc2)=CC[C@H](NC(=O)c2ccc3ccccc3c2)C1=O (some centres undefined)
C: O=C(CN1CC=CC[C@H](NC(=O)c2ccc3ccccc3c2)C1=O)N[C@H]1CC(=O)OC1O (some centres undefined)
QUERY: Sort the 3 compounds by half-life; largest first, smallest last. # output: labels, in the requested order
RESULT: B, A, C

---

Assay: AUC (0 to infinity) in Sprague-Dawley rat at 30 mg/kg, po
Type: ADME, organism-based, Plasma
Parameters: time infinity, dose 30 mg/kg, route oral
Settings: Sprague-Dawley, plasma
MEASUREMENT NAME: AUC(0-inf) (ng·h/mL)

1: CCOC1OC(=O)C[C@@H]1NC(=O)[C@H](C)N1CC=CC[C@H](NC(=O)c2ccc3ccccc3c2)C1=O (stereo partly drawn)
2: CCOC1OC(=O)C[C@@H]1NC(=O)CN1CC=CC[C@H](NC(=O)c2ccc3ccccc3c2)C1=O (stereo partly drawn)
3: CCOC1OC(=O)C[C@@H]1NC(=O)CN1CC(CNC(=O)c2ccc(OC)cc2)=CC[C@H](NC(=O)c2ccc3ccccc3c2)C1=O (stereo partly drawn)
QUERY: Ascending by AUC(0-inf), please. # output: labels, in the requested order
RESULT: 3, 1, 2

---

Assay: Bioavailability in Sprague-Dawley rat at 30 mg/kg, po
Type: ADME, organism-based
Settings: Sprague-Dawley, in vivo
MEASUREMENT NAME: bioavailability

QUERY: // returns reported bioavailability for input CCOC1OC(=O)C[C@@H]1NC(=O)CN1CC=CC[C@H](NC(=O)c2ccc3ccccc3c2)C1=O (stereo partly specified)
RESULT: > 90%
